test system: SR; assay: NCI tumour cell line growth inhibition, 48 h
Calls of active or inactive are those of the source. No stated cut-off is given here; in the data, active = GI50 up to about 1.1 µM and inactive = higher.
Please provide measured GI50 for the entries that follow.

>  <compound>
COc1cccc2c1C(=O)c1c(O)c3c(c(O)c1C2=O)C[C@@](O)(C(=O)CO)C[C@@H]3OC1CC(N2CCOCC2C#N)C(O)C(C)O1 (stereo not given in full)

>  <GI50>
0.0127 nM (active)

$$$$
>  <compound>
C=C1C(=O)OC2C1C(OC(=O)/C(C)=C/C)CC1(C)C(=O)CCC(=C)C21 (stereo not given)

>  <GI50>
2060 nM (inactive)

$$$$
>  <compound>
O=S(=O)(O)c1cc(Cl)c(O)c2ncc(Cl)cc12

>  <GI50>
32200 nM (inactive)

$$$$
>  <compound>
Oc1ccc([I+]c2ccccc2)cc1O

>  <GI50>
19100 nM (inactive)

$$$$

Pending compound:
Any idea what GI50 was measured for OCc1cc2ccncc2c2c1[nH]c1ccccc12 ? 2830 nM (inactive)
